Origin of the recorded values: patent US20090062294A1

Measured pIC50, listed per entry for reference.
target: rat FAAH (Rattus norvegicus); test: Assay Method 2: FAAH assay, 3H-anandamide hydrolysis in homogenate of SK-N-MC cells transfected with rat FAAH; conditions: average of results, > = solubility limit or highest concentration tested
Sequence (P97612 whole entry): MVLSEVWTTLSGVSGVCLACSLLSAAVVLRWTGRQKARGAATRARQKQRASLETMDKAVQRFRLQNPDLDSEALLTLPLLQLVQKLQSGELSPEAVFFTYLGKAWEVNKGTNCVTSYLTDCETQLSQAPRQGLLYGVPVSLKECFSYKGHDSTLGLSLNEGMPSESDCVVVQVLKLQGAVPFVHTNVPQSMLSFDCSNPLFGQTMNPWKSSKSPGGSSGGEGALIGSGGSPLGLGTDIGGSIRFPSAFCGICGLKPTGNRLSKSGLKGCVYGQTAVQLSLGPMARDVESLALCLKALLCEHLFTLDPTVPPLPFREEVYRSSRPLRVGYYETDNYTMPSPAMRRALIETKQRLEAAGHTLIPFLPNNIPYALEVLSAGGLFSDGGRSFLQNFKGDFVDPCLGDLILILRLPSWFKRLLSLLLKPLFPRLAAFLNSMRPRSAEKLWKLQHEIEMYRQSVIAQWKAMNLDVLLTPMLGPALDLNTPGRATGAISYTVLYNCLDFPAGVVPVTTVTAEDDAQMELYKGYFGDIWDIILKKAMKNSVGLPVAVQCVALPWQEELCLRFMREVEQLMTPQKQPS
pIC50: −log10 of the molar value. Structures can show the parent of a compound that is named as a salt.

Worked cases, answers included:
MOLECULE | pIC50
N#Cc1ccc(Oc2cccc(CN3CCN(C(=O)Nc4ccon4)CC3)c2)cc1C(F)(F)F [Example 163] | < 5.00
O=C(Nc1cnccn1)N1CCN(Cc2cnc3ccccc3c2)CC1 [Example 224] | < 5.00

Please examine the following record next.
IN: Check the records and state pIC50 for Cn1cc(Br)c(NC(=O)N2CCN(Cc3cccc(Oc4ccc(Cl)cc4)c3)CC2)n1 [Example 192, trifluoroacetic acid salt]
OUT: < 5.00
